Experimental System: T1, canine OX40L, full length membrane form, expressed on HEK293 cells (canine)
T1 chain: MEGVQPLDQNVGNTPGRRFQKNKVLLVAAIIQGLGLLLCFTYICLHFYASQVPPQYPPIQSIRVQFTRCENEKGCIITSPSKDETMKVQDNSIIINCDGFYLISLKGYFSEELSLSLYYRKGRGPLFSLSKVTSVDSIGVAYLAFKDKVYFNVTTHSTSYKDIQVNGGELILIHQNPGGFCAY
Method: cell-based or functional assay
% Signal Inhibition Rep2 overview
Give the value in % but do not write % after it.

A selection of reference data follows.
binder="PMX063 (antibody, V domains shown, also called PMX63) VH: EVQLVESGGDLVRPGGSLRLSCVASGFTFNNYHMSWVRQAPGKGLQWVAFINSGGSGTTFADVVRGRFTISRDYAKNALYLQMNSLRAEDTAVYYCASGSIWTHFDYWGQGTLVTVSS VL: SFVLTQLPSVSVTLRQTARITCGGDIIGSKNVYWYQQRLGQAPVLIIYRDNNRPTGIPERFSGASSGNTATLTISGALAEDEADYYCQVWDNSNKAMFGGGTHLTVL" measured_result=83
binder="PMX032 (antibody, V domains shown, also called PMX32) VH: EVQLVESGGDLVKPGGSLRLSCVASGFTFSSYHMSWVRQAPGKGLQWVAYITSGGRTTSYADAVKGRFIISRDNAKNTLYLQMNSLRAEDTAVYYCASDLVLILGGADYWGQGTLVTVSS VL: SYELTQPPSVNVTLRETAHITCGGDSIGRKYVQWIQQNPGQAPVVIIYKDNNRPTGIPERFSGANSGNTATLTISGALAEDEADYYCQVGDSGSKAVFGGGTHLTVL" measured_result=57.4

Looking up PMX084 (antibody, V domains shown, also called PMX84) VH: EVQLVESGGDLVKPEGSLRLSCVVSGFTFSNYDMSWVRQAPGKGLQWVAFISNDGRITGYTDAVEGRFTISRDNAKNTLYLQMNSLRTEDTAVYYCAKETSRWGFDYWGQGTLVTVSS VL: SYVLTQLPSVSVTLRQTARITCGGDSIGSKNVYWHQQKLGQAPVLIIYDDSSRPSGIPERFSGANSGNTATLTISGALAEDEADYYCQVWDSSTSVFGGGTHLTVL , I found its % Signal Inhibition Rep2 recorded as 66.9
